System: RAW264.7
assay.summary: Cytotoxicity against mouse RAW264.7 cells assessed as cell viability by MTT assay
Assay type: cell-based

compound	measured.target	Activity
C[C@@H]1O[C@@H](O[C@H]2[C@H](O)[C@@H](O)[C@H](OC[C@H]3OC(OC(=O)[C@]45CCC(C)(C)C[C@H]4C4=CC[C@@H]6[C@@]7(C)C[C@@H](O)[C@H](O)C(C)(C)[C@@H]7[C@H](O)C[C@@]6(C)[C@]4(C)CC5)[C@H](O)[C@@H](O)[C@@H]3O)O[C@@H]2CO)[C@H](O)[C@H](O)[C@H]1O (stereo not given in full)	RAW264.7	Non-toxic
C[C@H]1[C@H](CO)CC[C@]2(C(=O)O[C@@H]3O[C@H](CO[C@@H]4O[C@H](CO)[C@@H](O[C@@H]5O[C@@H](C)[C@H](O)[C@@H](O)[C@H]5O)[C@H](O)[C@H]4O)[C@@H](O)[C@H](O)[C@H]3O)CC[C@]3(C)C(=CC[C@@H]4[C@@]5(C)C[C@@H](O)[C@H](O)[C@@](C)(CO)[C@@H]5CC[C@]43C)[C@H]12 [ASIATICOSIDE G]	RAW264.7	Non-toxic
C[C@H]1[C@H](C)CC[C@]2(C(=O)O[C@@H]3O[C@H](CO[C@@H]4O[C@H](CO)[C@@H](O[C@@H]5O[C@@H](C)[C@H](O)[C@@H](O)[C@H]5O)[C@H](O)[C@H]4O)[C@@H](O)[C@H](O)[C@H]3O)CC[C@]3(C)C(=CC[C@@H]4[C@@]5(C)C[C@@H](O)[C@H](O)[C@@](C)(CO)[C@@H]5CC[C@]43C)[C@H]12 [ASIATICOSIDE]	RAW264.7	Non-toxic
O=c1c(O[C@@H]2O[C@H](CO)[C@@H](O)[C@H](O)[C@H]2O)c(-c2ccc(O)c(O)c2)oc2cc(O)cc(O)c12	RAW264.7	Non-toxic
O=c1c(O)c(-c2ccc(O)c(O)c2)oc2cc(O)cc(O)c12	RAW264.7	Non-toxic
C[C@H]1[C@H](C)CC[C@]2(C(=O)O[C@@H]3O[C@H](CO)[C@@H](O)[C@H](O)[C@H]3O)CC[C@]3(C)C(=CC[C@@H]4[C@@]5(C)C[C@@H](O)[C@H](O)[C@@](C)(CO)[C@@H]5CC[C@]43C)[C@H]12 [QUADRANOSIDE IV]	RAW264.7	Non-toxic
C[C@H]1[C@H](C)CC[C@]2(C(=O)O[C@@H]3O[C@H](CO[C@@H]4O[C@H](CO)[C@@H](O[C@@H]5O[C@@H](C)[C@H](O)[C@@H](O)[C@H]5O)[C@H](O)[C@H]4O)[C@@H](O)[C@H](O)[C@H]3O)CC[C@]3(C)C(=CC[C@@H]4[C@@]5(C)CC[C@H](O)[C@@](C)(CO)[C@@H]5CC[C@]43C)[C@H]12 [ASIATICOSIDE F]	RAW264.7	Non-toxic
O=c1c(O)c(-c2ccc(O)cc2)oc2cc(O)cc(O)c12	RAW264.7	Non-toxic
O=c1c(O[C@@H]2O[C@H](CO)[C@@H](O)[C@H](O)[C@H]2O)c(-c2ccc(O)cc2)oc2cc(O)cc(O)c12	RAW264.7	Non-toxic
C[C@H]1[C@H](C)CC[C@]2(C(=O)O)CC[C@]3(C)C(=CC[C@@H]4[C@@]5(C)C[C@@H](O)[C@H](O)[C@@](C)(CO)[C@@H]5CC[C@]43C)[C@H]12	RAW264.7	Non-toxic
